Catalogue of IC50 readings, one per entry.
Test system: RPMI-8226
measurement-description: Cytotoxicity against human RPMI8226 cells after 48 hrs by luminometric analysis
Assay type: functional, cell-based
test-settings: RPMI-8226, 48 h
State just the number; it will be interpreted in µM.

Reference set (3 entries):
molecule="CC(=O)OC[C@]12Oc3cccc(O)c3C(=O)C1=C(O)C[C@@H](C)[C@H]2OC(C)=O (relative stereo)" quantity=IC50 measurement_unit=µM experimental_result=71.6
molecule=CC(=O)OC[C@]12Oc3ccc(-c4ccc5c(c4O)C(=O)C4=C(O)C[C@@H](C)[C@@H](OC(C)=O)[C@@]4(COC(C)=O)O5)c(O)c3C(=O)C1=C(O)C[C@@H](C)[C@H]2OC(C)=O quantity=IC50 measurement_unit=µM experimental_result=4.8
molecule="CC(=O)OC[C@]12Oc3c(-c4ccc5c(c4O)C(=O)C4=C(O)C[C@@H](C)[C@@H](OC(C)=O)[C@@]4(CO)O5)ccc(O)c3C(=O)C1=C(O)C[C@@H](C)[C@H]2OC(C)=O (relative stereo)" quantity=IC50 measurement_unit=µM experimental_result=12.9

Switching to the query record.
Q. Supply recorded IC50 for CC(=O)OC[C@]12Oc3ccc(-c4ccc5c(c4O)C(=O)C4=C(O)C[C@@H](C)[C@@H](OC(C)=O)[C@@]4(CO)O5)c(O)c3C(=O)C1=C(O)C[C@@H](C)[C@H]2OC(C)=O here.
A. 2.4

---

Catalogue of IC50 readings, one per entry.
Test system: HT
measurement-description: Cytotoxicity against human HT cells after 48 hrs by luminometric analysis in presence of HS5 bone marrow stromal cells
Assay type: functional, cell-based
State just the number; it will be interpreted in µM.

Reference set (3 entries):
compound="CC(=O)OC[C@]12Oc3cccc(O)c3C(=O)C1=C(O)C[C@@H](C)[C@H]2OC(C)=O (relative stereo)" experimental_result=34.9
compound="CC(=O)OC[C@]12Oc3c(-c4ccc5c(c4O)C(=O)C4=C(O)C[C@@H](C)[C@@H](OC(C)=O)[C@@]4(CO)O5)ccc(O)c3C(=O)C1=C(O)C[C@@H](C)[C@H]2OC(C)=O (relative stereo)" experimental_result=9.9
compound=CC(=O)OC[C@]12Oc3ccc(-c4ccc5c(c4O)C(=O)C4=C(O)C[C@@H](C)[C@@H](OC(C)=O)[C@@]4(COC(C)=O)O5)c(O)c3C(=O)C1=C(O)C[C@@H](C)[C@H]2OC(C)=O experimental_result=4

Switching to the query record.
Q. Supply recorded IC50 for CC(=O)OC[C@]12Oc3ccc(-c4ccc5c(c4O)C(=O)C4=C(O)C[C@@H](C)[C@@H](OC(C)=O)[C@@]4(CO)O5)c(O)c3C(=O)C1=C(O)C[C@@H](C)[C@H]2OC(C)=O here.
A. 1.3

---

measurement-description: Cytotoxicity against human SVGp12 cells after 48 hrs by luminometric analysis
Format: cell-based
test-settings: SVGp12, 48 h
quantity: pIC50
On this scale, pIC50 is minus log10 of a concentration expressed in M (mol/L).

Q. Supply recorded pIC50 for CC(=O)OC[C@]12Oc3ccc(-c4ccc5c(c4O)C(=O)C4=C(O)C[C@@H](C)[C@@H](OC(C)=O)[C@@]4(CO)O5)c(O)c3C(=O)C1=C(O)C[C@@H](C)[C@H]2OC(C)=O here.
A. 4.86
